Reference source: patent US10179767B2

- target.or.test.system: hNav1.7 (Homo sapiens, UniProt Q15858)
- Sequence (Q15858 whole entry): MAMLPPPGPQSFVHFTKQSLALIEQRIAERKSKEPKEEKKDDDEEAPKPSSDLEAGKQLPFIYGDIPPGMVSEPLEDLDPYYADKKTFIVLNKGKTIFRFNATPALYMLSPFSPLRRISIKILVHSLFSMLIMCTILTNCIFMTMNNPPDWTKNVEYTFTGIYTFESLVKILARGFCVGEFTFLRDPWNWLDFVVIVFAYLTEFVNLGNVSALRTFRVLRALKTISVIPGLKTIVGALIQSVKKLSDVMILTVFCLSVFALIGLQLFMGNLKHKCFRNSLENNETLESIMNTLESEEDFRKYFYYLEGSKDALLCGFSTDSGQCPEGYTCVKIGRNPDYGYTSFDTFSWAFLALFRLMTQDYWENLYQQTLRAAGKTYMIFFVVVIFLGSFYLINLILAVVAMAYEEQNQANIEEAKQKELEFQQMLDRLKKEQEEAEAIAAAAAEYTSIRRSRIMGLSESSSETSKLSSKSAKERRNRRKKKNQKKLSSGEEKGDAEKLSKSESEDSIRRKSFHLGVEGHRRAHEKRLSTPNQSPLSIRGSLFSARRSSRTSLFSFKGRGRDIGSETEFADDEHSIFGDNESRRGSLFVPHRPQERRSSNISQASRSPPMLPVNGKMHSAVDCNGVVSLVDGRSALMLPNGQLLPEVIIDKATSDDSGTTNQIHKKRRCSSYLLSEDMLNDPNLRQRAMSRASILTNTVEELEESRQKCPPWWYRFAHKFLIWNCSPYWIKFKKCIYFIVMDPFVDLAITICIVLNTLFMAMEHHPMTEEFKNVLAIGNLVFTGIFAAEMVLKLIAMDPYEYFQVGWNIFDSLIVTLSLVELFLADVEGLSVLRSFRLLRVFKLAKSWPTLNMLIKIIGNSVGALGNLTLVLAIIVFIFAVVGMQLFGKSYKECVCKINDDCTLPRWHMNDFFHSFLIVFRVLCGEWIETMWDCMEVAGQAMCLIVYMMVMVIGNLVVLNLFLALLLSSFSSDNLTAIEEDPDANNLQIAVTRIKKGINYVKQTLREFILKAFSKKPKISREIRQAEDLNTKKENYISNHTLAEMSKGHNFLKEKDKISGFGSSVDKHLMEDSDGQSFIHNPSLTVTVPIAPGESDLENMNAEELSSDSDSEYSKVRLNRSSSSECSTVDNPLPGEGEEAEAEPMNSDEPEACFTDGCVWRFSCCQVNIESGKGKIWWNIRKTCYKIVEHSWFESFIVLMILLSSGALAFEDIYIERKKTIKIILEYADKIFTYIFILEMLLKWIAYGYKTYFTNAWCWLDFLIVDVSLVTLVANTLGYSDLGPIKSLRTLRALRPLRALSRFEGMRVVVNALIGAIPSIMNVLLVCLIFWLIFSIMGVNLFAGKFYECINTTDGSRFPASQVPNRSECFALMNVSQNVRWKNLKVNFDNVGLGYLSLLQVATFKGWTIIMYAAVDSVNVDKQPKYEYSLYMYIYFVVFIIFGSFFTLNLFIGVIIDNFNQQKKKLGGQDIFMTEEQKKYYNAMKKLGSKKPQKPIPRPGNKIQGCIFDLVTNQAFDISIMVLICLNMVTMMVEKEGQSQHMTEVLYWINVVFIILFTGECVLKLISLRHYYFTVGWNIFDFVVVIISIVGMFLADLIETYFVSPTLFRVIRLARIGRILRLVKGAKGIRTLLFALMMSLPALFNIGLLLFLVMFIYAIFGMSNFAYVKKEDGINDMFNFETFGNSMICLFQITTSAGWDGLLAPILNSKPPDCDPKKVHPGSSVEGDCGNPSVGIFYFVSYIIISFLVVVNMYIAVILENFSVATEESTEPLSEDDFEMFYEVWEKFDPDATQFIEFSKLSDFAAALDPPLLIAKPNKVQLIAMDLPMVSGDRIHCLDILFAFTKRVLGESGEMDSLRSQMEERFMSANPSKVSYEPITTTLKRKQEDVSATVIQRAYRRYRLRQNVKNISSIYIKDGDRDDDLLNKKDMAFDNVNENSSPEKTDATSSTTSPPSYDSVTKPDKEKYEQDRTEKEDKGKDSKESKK
- Sequence (Q07699 19-218 partner): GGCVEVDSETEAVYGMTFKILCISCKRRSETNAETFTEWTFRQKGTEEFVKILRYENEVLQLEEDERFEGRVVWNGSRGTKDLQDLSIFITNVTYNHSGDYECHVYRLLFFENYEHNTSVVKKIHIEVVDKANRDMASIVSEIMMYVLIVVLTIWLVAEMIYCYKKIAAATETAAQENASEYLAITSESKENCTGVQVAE
- assay.name: Tritiated sulfonamide binding to membranes from cells expressing hNav1.7 and the β1 subunit (Nav 1.7 ligand binding assay, competitive)
- recorded.conditions: competition with 100 pM [3H]compound, room temperature, 18 h
parameter: IC50 (nM)

[a] CC(c1cc(Cl)cc(Cl)c1)N1CCC(COc2ccc(C(=O)NS(C)(=O)=O)cc2C2CC2)CC1 (stereo not drawn)
[b] CC(C)Oc1ncc(CN2CCC(F)(COc3cc(F)c(C(=O)NS(=O)(=O)C4CC4)cc3C3CC3)CC2)cc1Cl
Compare IC50: is it lower for a or for b ? In your reply, give the label of the chosen option.
b

[P] CS(=O)(=O)NC(=O)c1cc(C2CC2)c(OCC2CCN([C@H](c3cc(Cl)cc(Cl)c3)C3COC3)CC2)cc1F (single isomer, unassigned)
[Q] CCS(=O)(=O)NC(=O)c1cc(C2CC2)c(OCC2CCN([C@H](C)c3cc(Cl)cc(Cl)c3F)CC2)cc1F (single isomer, unassigned)
Compare IC50: is it lower for P or for Q ? In your reply, give the label of the chosen option.
Q
(Q: 2.4 nM, P: 9.9 nM)

---

- target.or.test.system: hNav1.7 (Homo sapiens)
- assay.name: Tritiated sulfonamide binding to membranes from cells expressing hNav1.7 and the β1 subunit (Nav 1.7 ligand binding assay, competitive)
- recorded.conditions: competition with 100 pM [3H]compound, room temperature, 18 h
- Experimental: Tritiated Sulfonamide Binding to Membranes Isolated from Cells that Heterologously Express hNav1.7 and the β1 Subunit Preparation of membranes containing recombinantly expressed sodium channels: Frozen recombinant cell pellets were thawed on ice and diluted to 4 times the cell pellet weight with ice cold 50 mM Tris HCl, pH 7.4 buffer. […] Protein concentrations were determined by Bradford Assay and the membranes were stored at −80° C. […]
parameter: IC50 (nM)

Sample records with IC50:
molecule	unit	IC50
C[C@@H](c1cc(Cl)cc(Cl)c1)N1CCC(F)(COc2cc(F)c(C(=O)NS(=O)(=O)N3CCC3)cc2C2CC2)CC1	nM	5.6
N#Cc1c(Cl)cc(Cl)cc1CN1CCC(COc2cc(F)c(C(=O)NS(=O)(=O)C3CC3)cc2C2CC2)CC1	nM	5.9
CS(=O)(=O)NC(=O)c1ccc(OCC2CCN(Cc3cc(C(F)(F)F)cc(Cl)c3F)CC2)c(C2CC2)c1	nM	9.8
CS(=O)(=O)NC(=O)c1cc(C2CC2)c(OCC2(F)CCN(Cc3cc(F)cc(Cl)c3)CC2)cc1F	nM	4.9
C[C@@H](c1cc(Cl)c(F)c(Cl)c1)N1CCC(COc2cc(F)c(C(=O)NS(C)(=O)=O)cc2C2CC2)CC1 (single isomer, unassigned)	nM	3.1

[a] CS(=O)(=O)NC(=O)c1cc(C2CC2)c(OCC2(F)CCN(Cc3ccc(F)cc3Cl)CC2)cc1F
[b] O=C(NS(=O)(=O)C1CC1)c1cc(C2CC2)c(OCC2(F)CCN(c3cc(C(F)(F)F)c(Cl)cn3)CC2)cc1F
From the recorded data, which exceeds the other in IC50: a or b ? In your reply, give the label of the chosen option.
b
(b: 9.3 nM, a: 4.2 nM)

---

- target.or.test.system: hNav1.7 (Homo sapiens, UniProt Q15858)
- assay.name: Tritiated sulfonamide binding to membranes from cells expressing hNav1.7 and the β1 subunit (Nav 1.7 ligand binding assay, competitive)
- recorded.conditions: competition with 100 pM [3H]compound, room temperature, 18 h
pIC50: −log10 of the molar value.
parameter: pIC50

Sample records with pIC50:
molecule	numeric.readout
COC1(COc2cc(F)c(C(=O)NS(=O)(=O)C3CC3)cc2C2CC2)CCN(Cc2cc(Cl)cc(Cl)c2)CC1	8.24
C[C@H](c1cc(Cl)cc(Cl)c1C#N)N1CCC(COc2cc(F)c(C(=O)NS(C)(=O)=O)cc2C2CC2)CC1 (single isomer, unassigned)	8.06
CS(=O)(=O)NC(=O)c1cc(C2CC2)c(O[C@H]2CN(Cc3ccc(F)cc3Cl)CC[C@@H]2F)cc1F (relative stereo)	7.08
CS(=O)(=O)NC(=O)c1cc(C2CC2)c(OCC2(F)CCN(Cc3ccc(F)c(Cl)c3)CC2)cc1F	8.28
C[C@H](c1cc(C(F)(F)F)cc(Cl)c1F)N1CCC(C#N)(COc2cc(F)c(C(=O)NS(C)(=O)=O)cc2C2CC2)CC1 (single isomer, unassigned)	8.01
COc1c(Cl)cc(Cl)cc1[C@H](C)N1CCC(COc2cc(F)c(C(=O)NS(C)(=O)=O)cc2C2CC2)CC1 (single isomer, unassigned)	8.24

[a] C[C@@H](c1ccc(Cl)c(F)c1)N1CCC(COc2cc(F)c(C(=O)NS(C)(=O)=O)cc2C2CC2)CC1 (single isomer, unassigned)
[b] CS(=O)(=O)NC(=O)c1cc(C2CC2)c(OCC2(F)CCN(Cc3ccc(Cl)cc3Cl)CC2)cc1F
From the recorded data, which exceeds the other in pIC50: a or b ? In your reply, give the label of the chosen option.
b
(b: 8.46, a: 8.18)
